Entries and their fraction unbound at 5 h values follow.
Experiment notes: in vitro
Stated conditions: human, plasma, PPB
Non-standard residues stand in square brackets, D forms with d. Residues, ends and D or L forms follow the SMILES beside them. Phe(2-Me) = Cc1ccccc1C[C@H](N)C(=O)O
Measured metric: fraction unbound at 5 h

Molecule	Observed measurement
COc1ccc(C[C@H](N)C(=O)N[C@@H](Cc2ccccc2C)C(N)=O)cc1 (H-Tyr(Me)-[Phe(2-Me)]-NH2)	0.36
CCC(=O)O[C@]1(C(=O)SCF)[C@H](C)C[C@H]2[C@@H]3C[C@H](F)C4=CC(=O)C=C[C@]4(C)[C@@]3(F)[C@@H](O)C[C@@]21C [FLUTICASONE PROPIONATE]	0.0191
COc1cc(OC)c(S(=O)(=O)NCc2ccccc2N2CCC(CO)CC2)cc1NC(=O)CCC(=O)O	0.403
Cc1ccc(S(=O)(=O)NCCSc2nnnn2-c2ccc(C(N)=O)cc2)cc1	0.101

###

Experiment notes: in vitro
Stated conditions: hepatocytes
Given measured hepatocyte CLint, output 1 (yes) if it is greater than or equal to 50 µL/min/1e6 cells and 0 (no) if not.

                                    molecule  label_value
 0  C[C@@](C(=O)O[C@H]1C[N+]2(CCOc3ccc(Cl)cc3)CCC1CC2)(c1ccccc1)N1CCCCC1      1 (yes)
 1  CCC(C)(CC)C[C@H](c1ccc(C(=O)O)c(Oc2cccc(Br)c2)c1)N1CCC[C@H](n2cc(C)c(=O)[nH]c2=O)C1      1 (yes)
 2  COc1cc2c(ccc(=O)n2CCN2CCC(NCc3cc4c(cn3)OCCO4)CC2)cn1       0 (no)
 3         CN(C)CCCOc1nn(Cc2ccccc2)c2ccccc12      1 (yes)
 4    COc1ccc2nc(C)cc(OCC(=O)NCc3ccccc3)c2c1      1 (yes)
 5  Cc1ccc(CCOCCNS(=O)(=O)CCCNCCc2ccc(O)c3nc(O)sc23)cc1      1 (yes)
 6  O=C(Nc1cccc(-c2nnn[nH]2)c1)c1cc(C(F)(F)F)cc2[nH]cnc12       0 (no)
 7  Cc1c(Cl)ccc(OC2CCN(CC3CCN([C@@H](Cc4ccc(F)cc4)C(=O)O)CC3)CC2)c1Cl       0 (no)
 8      O=S(=O)(c1ccccc1)N1CCN(Cc2ccccc2)CC1      1 (yes)
 9       CCOC(=O)c1c(-c2ccccc2)nc2ccc(C)cn12      1 (yes)
10  N#CCNC(=O)c1ccc(-c2ccnc(Nc3ccc(N4CCOCC4)cc3)n2)cc1       0 (no)
11  CC/C(=C(/c1ccc(O)cc1)c1ccc(/C=C/C(=O)O)cc1)c1ccccc1      1 (yes)
12  O=C([C@H]1CCCCN1)N1CCN(c2nc(NCc3ccc(Cl)cc3Cl)c3cccnc3n2)CC1       0 (no)
13      CNCC[C@@H](Oc1cc(Cl)ccc1C#N)c1ccccc1      1 (yes)
14  CCc1cc2c(cc1N1CCC(N3CCOCC3)CC1)C(C)(C)c1[nH]c3cc(C#N)ccc3c1C2=O       0 (no)
15  Cc1ccccc1-c1c(C(=O)O)n(CCCOc2cccc3ccccc23)c2ccccc12      1 (yes)
16  O=C(NCC12CC3CC(CC(C3)C1)C2)c1cc(CN2CCNCC2)ccc1Cl       0 (no)
17       O=C(NS(=O)(=O)c1ccccc1Cl)c1ccc[nH]1       0 (no)
18  O=c1cc(-c2cccnc2)[nH]c2cc(C(O)c3ccccc3)ccc12 (stereo not drawn)       0 (no)
19  CC(=O)c1ncccc1NC(=O)[C@H]1CC[C@H](N2C(=O)[C@@H]3[C@@H]4CC[C@@H](C4)[C@@H]3C2=O)CC1      1 (yes)
20     Cc1nccn1CCC(C(N)=O)(c1ccccc1)c1ccccc1       0 (no)
21  CN(CCc1ccc(O)c2[nH]c(=O)sc12)CCN(C)C(=O)CCOCCc1ccccc1      1 (yes)
22      Cc1ccc(S(=O)(=O)N2N=Cc3ccccc3B2O)cc1       0 (no)
23  COCC1=C(C(=O)O)N2C(=O)[C@@H](NC(=O)/C(=N\OC)c3csc(N)n3)[C@H]2SC1       0 (no)
24  Cc1cn([C@H]2CCCN([C@@H](CC(C)(C)C)c3ccc(C(=O)O)c(Oc4cccc(Br)c4)c3)C2)c(=O)[nH]c1=O       0 (no)
25  CCS(=O)(=O)CCCC12CCC(c3nnc(-c4ccccc4C(F)(F)F)n3C)(CC1)CC2       0 (no)
26  CC(C)c1nc2ccc(-c3ccc(F)cc3)cc2c(=O)n1C[C@H]1CCCN(C(C)C)C1       0 (no)
27  CNC(=O)c1c(F)cccc1Nc1nc(Nc2cc3c(cc2OC)CCN3C(=O)CN(C)C)nc2[nH]ccc12       0 (no)
28                O=C(Nc1ccccc1Cl)c1cc[nH]n1      1 (yes)
29  Cc1cn([C@H]2CCCN(S(=O)(=O)c3ccc(O)c(Oc4ccc(Cl)cc4)c3)C2)c(=O)[nH]c1=O      1 (yes)
30      O=C(O)COc1ccc(C(=O)c2cccs2)c(Cl)c1Cl      1 (yes)
31  CCN(CCNCCc1ccc(O)c2[nH]c(=O)sc12)C(=O)CCOCCc1ccccc1      1 (yes)

###

Experiment notes: physchem
Stated conditions: octan-1-ol/water, pH 7.4, LogD7.4
Measured metric: logD

>>> print(df.to_string())
                               query_smiles  observed_measurement
0           Cc1oc2cc(O)ccc2c(=O)c1-c1ccccc1                  2.95
1  CCN(C(=O)Cc1ccc(S(C)(=O)=O)cc1)C1CCN(CCC(c2ccccc2)c2ccccc2)CC1                     3
2  COCCC(=O)N[C@H](C)c1ccc(Nc2ncc3cc(-c4ccncc4)ccc3n2)cc1                  3.08

###

Experiment notes: physchem
This listing pairs compounds with measured pKa.
Measured metric: pKa

In [3]: df
Out[3]:
                                    compound  observed_measurement
 0  N#Cc1ccc(C[C@@H](C(=O)O)N2CCC(CN3CCC(Oc4ccc(Cl)c(Cl)c4)CC3)CC2)cc1                   8.9
 1  Cc1ccc(C(=O)N2CC3CNCC(C2)O3)cc1NC(=O)CC12CC3CC(CC(C3)C1)C2                  7.18
 2  O=C(O)c1ccccc1N1CCC(CN2CCC(Oc3ccc(Cl)c(Cl)c3)CC2)CC1                   8.9
 3  CCCN(CCC)CCc1ccc(O)c2c1CC(=O)N2 [SKF-89124A]                  10.2
 4  O=C(NCC12CC3CC(CC(C3)C1)C2)c1cc(CN2CC3CNCC(C2)O3)ccc1Cl                    10
 5  CCN(CC)C(C)C(=O)c1ccccc1 (stereo unspecified) [DIETHYLPROPION]                   8.8
 6  COC(=O)C1=C(C)NC(C)=C(C(=O)OCCN(C)Cc2ccccc2)C1c1cccc([N+](=O)[O-])c1 (stereo unspecified) [NICARDIPINE]                  7.26
 7  CN1CCC(=C2c3ccccc3CC(=O)c3sccc32)CC1 [KETOTIFEN]                     9
 8   CC12CC3CC(C)(C1)CC(N)(C3)C2 [MEMANTINE]                  10.7
 9  CC(C)N1CCN(Cc2cnc(-c3cc(-c4cccc5[nH]ccc45)cc4[nH]ncc34)o2)CC1 [NEMIRALISIB]                  8.26
10  Cc1ccccc1C[C@@H](C(=O)O)N1CCC(CN2CCC(Oc3ccc(Cl)c(Cl)c3)CC2)CC1                   9.2

###

Experiment notes: in vitro
Stated conditions: human, hepatocytes
The reader will find reported hepatocyte CLint values listed item by item below.
Measured metric: hepatocyte CLint

                                    compound   observed_measurement
 0  COc1ccccc1SC[C@@H](C)CN[C@@H]1COc2ccccc2SC1  51.3 µL/min/1e6 cells
 1  CC(C)(C)NS(=O)(=O)c1cncc(-c2ccc3nc(NC(=O)NCC(=O)N4CCCC4)nn3c2)c1  4.79 µL/min/1e6 cells
 2  COc1ccc(CCO[C@@H]2CCCC[C@H]2N2CC[C@@H](O)C2)cc1OC  6.46 µL/min/1e6 cells
 3  NC(=O)N1c2ccccc2C=Cc2ccccc21 [CARBAMAZEPINE]  5.25 µL/min/1e6 cells
 4           Cc1c(N(C)C)c(=O)n(-c2ccccc2)n1C  3.47 µL/min/1e6 cells
 5  C=CC(=O)Nc1cccc(Oc2nc(Nc3ccc(N4CCN(C)CC4)cc3OC)ncc2Cl)c1  3.31 µL/min/1e6 cells
 6  CC[C@H](CO)Nc1nc(SCc2ccccc2)nc2[nH]c(=O)sc12    10 µL/min/1e6 cells
 7  O=C1CN=C(c2ccccc2Cl)c2cc([N+](=O)[O-])ccc2N1  3.72 µL/min/1e6 cells
 8  C[C@]12CCC(=O)C=C1C=C[C@@H]1[C@@H]2CC[C@@]2(C)[C@H]1CC[C@@]21CCC(=O)O1  6.61 µL/min/1e6 cells
 9  Cc1c(Sc2ccc(Cl)cc2)c2c(NS(C)(=O)=O)cccc2n1CC(=O)O  4.76 µL/min/1e6 cells
10  FC(F)(F)Oc1ccc(-c2nnc(CCCCc3ccc4cccnc4n3)o2)cc1Cl  24.6 µL/min/1e6 cells
11  CC(c1cc2ccccc2s1)N(O)C(N)=O (stereo unspecified)  7.76 µL/min/1e6 cells
12  COc1ncccc1-c1cccc2c(N)c3c(nc12)CN(C1CCC1)C3=O  4.88 µL/min/1e6 cells
13  O=C(Cc1ccc(Cl)c(C(F)(F)F)c1)Nc1cccc2c(=O)n(CCO)ccc12    32 µL/min/1e6 cells
14  Cc1ccc(NC(=O)c2cccc(N(C)S(C)(=O)=O)c2)cc1NC(=O)c1ccc2ncccc2c1   < 3 µL/min/1e6 cells
15  C[C@H](CO)Nc1nc(SCc2ccccc2F)nc2nc(N)sc12  5.75 µL/min/1e6 cells
16  Cc1oncc1C(=O)Nc1ccc(C(F)(F)F)cc1 [LEFLUNOMIDE]   < 3 µL/min/1e6 cells
17  NC1(c2ccc(-c3ncc4nccn4c3-c3ccccc3)cc2)CCC1   < 3 µL/min/1e6 cells
18  CC(C)(C)NC(=O)NCCN1CC(NC(=O)c2cc(Cl)cc(Cl)c2)C1  3.31 µL/min/1e6 cells
19  Nc1ncc(-c2ccc(S(=O)(=O)N3CCCC3)cc2)nc1C(=O)Nc1cccnc1   < 3 µL/min/1e6 cells
20  CC1(CCCc2cc(=O)oc3[nH]c(=O)[nH]c(=O)c23)CC1   < 3 µL/min/1e6 cells
21  CCCS(=O)(=O)Nc1ccc(F)c(C(=O)c2c[nH]c3ncc(-c4ccc(Cl)cc4)cc23)c1F  6.61 µL/min/1e6 cells
22         Cc1ccc(-c2cccc(-c3nn[nH]n3)c2)cc1  52.5 µL/min/1e6 cells
23  CNC(=O)c1ccccc1Nc1nc(Nc2ccc(N3CCOCC3)cc2OC)ncc1Cl  16.2 µL/min/1e6 cells
24      N#Cc1ccc(C(c2ccc(C#N)cc2)n2cncn2)cc1   < 3 µL/min/1e6 cells
25  O=C1Nc2ccc(Cl)cc2[C@@](C#CC2CC2)(C(F)(F)F)O1  8.51 µL/min/1e6 cells
